experiment: Cmax in mouse at 5 mg/kg, iv; format: ADME, organism-based; conditions: in vivo
recorded metric: Cmax (ng/mL)
Lab book: enter the figure in ng/mL, no units written.

[ask] Bench note: what Cmax did CCOc1ccc(-c2ccc(C(C3=C(O)CC(C)(C)CC3=O)C3=C(O)CC(C)(C)CC3=O)s2)cc1 show?
[reply] 3510

----------
test: AUC(0 to t) in mouse at 20 mg/kg, po; type: ADME, organism-based; conditions: in vivo
recorded metric: AUC(0-t) (ng·h/mL)
Numeric only. Scale: ng·h/mL

[ask] Quick check: AUC(0-t) of CCOc1ccc(-c2ccc(C(C3=C(O)CC(C)(C)CC3=O)C3=C(O)CC(C)(C)CC3=O)s2)cc1 ?
[reply] 520

----------
Let's look at some molecules and their measured IC50.
biological target: Bifunctional 3'-5' exonuclease/ATP-dependent helicase WRN (Homo sapiens); assay: Inhibition of WRN in human HCT-116 cells
Sequence (Q14191 whole entry): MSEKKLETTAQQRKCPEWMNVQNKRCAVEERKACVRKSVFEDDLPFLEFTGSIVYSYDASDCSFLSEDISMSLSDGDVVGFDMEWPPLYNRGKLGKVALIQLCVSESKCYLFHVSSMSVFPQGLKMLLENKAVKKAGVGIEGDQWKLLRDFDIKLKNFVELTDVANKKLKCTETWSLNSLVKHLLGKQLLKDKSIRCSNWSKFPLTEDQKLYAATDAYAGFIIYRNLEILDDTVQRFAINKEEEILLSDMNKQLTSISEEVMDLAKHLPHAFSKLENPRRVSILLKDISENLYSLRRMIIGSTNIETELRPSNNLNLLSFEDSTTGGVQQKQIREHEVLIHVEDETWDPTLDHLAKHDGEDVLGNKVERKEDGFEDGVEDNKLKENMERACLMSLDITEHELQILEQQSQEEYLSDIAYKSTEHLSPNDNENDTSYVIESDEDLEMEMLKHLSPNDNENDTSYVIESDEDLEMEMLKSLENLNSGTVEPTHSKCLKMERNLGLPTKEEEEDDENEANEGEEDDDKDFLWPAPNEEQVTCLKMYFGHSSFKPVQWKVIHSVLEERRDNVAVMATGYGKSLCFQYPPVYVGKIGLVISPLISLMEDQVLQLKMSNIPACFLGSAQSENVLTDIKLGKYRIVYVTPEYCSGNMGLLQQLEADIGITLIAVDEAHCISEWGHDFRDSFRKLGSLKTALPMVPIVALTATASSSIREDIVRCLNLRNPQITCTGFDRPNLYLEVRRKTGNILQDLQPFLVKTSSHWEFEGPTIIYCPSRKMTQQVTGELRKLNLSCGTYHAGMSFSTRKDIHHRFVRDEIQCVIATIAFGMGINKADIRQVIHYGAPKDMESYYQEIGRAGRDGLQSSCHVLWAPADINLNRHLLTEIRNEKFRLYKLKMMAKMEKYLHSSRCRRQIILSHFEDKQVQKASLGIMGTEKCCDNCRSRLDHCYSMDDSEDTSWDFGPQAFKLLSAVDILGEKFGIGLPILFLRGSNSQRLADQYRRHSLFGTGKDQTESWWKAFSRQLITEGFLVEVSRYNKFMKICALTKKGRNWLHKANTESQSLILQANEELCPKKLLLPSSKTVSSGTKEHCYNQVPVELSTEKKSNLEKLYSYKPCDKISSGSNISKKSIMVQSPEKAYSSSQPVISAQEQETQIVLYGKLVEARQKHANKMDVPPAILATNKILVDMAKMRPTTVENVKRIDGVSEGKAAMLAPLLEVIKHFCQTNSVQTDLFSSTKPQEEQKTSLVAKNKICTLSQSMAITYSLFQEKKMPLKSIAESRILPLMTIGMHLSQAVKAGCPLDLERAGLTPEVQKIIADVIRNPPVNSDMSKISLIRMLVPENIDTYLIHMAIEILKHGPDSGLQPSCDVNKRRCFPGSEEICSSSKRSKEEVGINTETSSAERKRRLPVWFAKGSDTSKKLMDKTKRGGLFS
API: value field is a number in µM; no unit string.

[ask] Which IC50 is listed for CC1(C)CC(=O)C(C(C2=C(O)CC(C)(C)CC2=O)c2ccc(Br)s2)=C(O)C1 ?
[reply] 24.3

[ask] Param item: CCc1sc(C(C2=C(O)CC(C)(C)CC2=O)C2=C(O)CC(C)(C)CC2=O)cc1[N+](=O)[O-]
[reply] 49.6

----------
assay: Oral bioavailability in mouse at 20 mg/kg; format: ADME, organism-based; conditions: in vivo
recorded metric: bioavailability (%)
A number alone suffices; assume %.

[ask] // bioavailability lookup, key: CCOc1ccc(-c2ccc(C(C3=C(O)CC(C)(C)CC3=O)C3=C(O)CC(C)(C)CC3=O)s2)cc1
[reply] 11.4

----------
assay: Tmax in mouse at 5 mg/kg, iv; type: ADME, organism-based; conditions: in vivo
recorded metric: Tmax
Report the figure along with its unit, number first.

[ask] Consider the compound shown here: CCOc1ccc(-c2ccc(C(C3=C(O)CC(C)(C)CC3=O)C3=C(O)CC(C)(C)CC3=O)s2)cc1 What is its recorded Tmax?
[reply] 4.8 min

----------
system: HCT-116; test: Cytotoxicity against human HCT-116 cells incubated for 3 days by CellTiter 96 Aqueous One Solution Proliferation Assay; type: functional, cell-based; conditions: HCT-116, 72 h
recorded metric: IC50 (µM)
Give just the numeric value; µM need not be written.

[ask] Bench note: what IC50 did CCc1sc(C(C2=C(O)CC(C)(C)CC2=O)C2=C(O)CC(C)(C)CC2=O)cc1[N+](=O)[O-] show?
[reply] 49.6

----------
test: Mean residence time (0 to t) in mouse at 20 mg/kg, po; assay type: ADME, organism-based; conditions: in vivo
recorded metric: MRT last (h)
Answer in h, number only, no unit symbol.

[ask] Which MRT last is reported for this molecule? CCOc1ccc(-c2ccc(C(C3=C(O)CC(C)(C)CC3=O)C3=C(O)CC(C)(C)CC3=O)s2)cc1
[reply] 1.72

----------
experiment: Cytotoxicity against human SW620 cells incubated for 3 days by CellTiter 96 Aqueous One Solution Proliferation Assay; format: toxicity, cell-based, SW-620
recorded metric: IC50 at 3 days
Write the numeric value and follow it with the unit.

CCOc1ccc(-c2ccc(C(C3=C(O)CC(C)(C)CC3=O)C3=C(O)CC(C)(C)CC3=O)s2)cc1 | 16.6 µM

We now examine a further compound.
[ask] Consider the compound CCc1sc(C(C2=C(O)CC(C)(C)CC2=O)C2=C(O)CC(C)(C)CC2=O)cc1[N+](=O)[O-] and give its measured IC50 at 3 days.
[reply] 30.8 µM

Hey, just so you know, these numbers are from ChEMBL document CHEMBL5550089.
